# Assayed Target: Ubiquitin-conjugating enzyme E2 N (Homo sapiens, UniProt P61088);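 note: Dose-response confirmation in a TR-FRET assay detecting UBC13-driven polyubiquitin chain formation, inhibition measured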
# Sequence (P61088 whole entry): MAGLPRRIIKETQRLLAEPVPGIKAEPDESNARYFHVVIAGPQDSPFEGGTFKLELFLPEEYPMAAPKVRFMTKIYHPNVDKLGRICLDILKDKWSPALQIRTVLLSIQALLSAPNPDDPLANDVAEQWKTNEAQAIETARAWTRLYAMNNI
# Type: functional
Calls of active or inactive are those of the source.
Outcome codes: yes (1) = active, no (0) = inactive

>  <Compound>
CCOC(=O)c1cc(-c2ccccc2)nc2c1c(C)nn2-c1ccccn1

>  <Qualitative Label>
no (0)

$$$$
>  <Compound>
CC(=O)c1ccccc1OCC(O)CN1CCN(CCN2C(=O)c3cccc4cccc(c34)C2=O)CC1 (centres undefined)

>  <Qualitative Label>
no (0)

$$$$
>  <Compound>
Cc1ccc(OCCCC(=O)NNC(=O)c2ccccn2)cc1

>  <Qualitative Label>
no (0)

$$$$
>  <Compound>
COc1ccc(C(=O)NC(=S)NNC(=O)c2ccc(NC(C)=O)cc2)cc1Br

>  <Qualitative Label>
yes (1)

$$$$
>  <Compound>
CN(C)CCNc1oc(COc2ccc(Cl)cc2Cl)nc1C#N

>  <Qualitative Label>
no (0)

$$$$
>  <Compound>
C#CCOCCOCCOCCNc1nc(N2CCN(C(=O)[C@H]([C@@H](C)CC)n3cc([C@@H](N)CC(C)C)nn3)CC2)nc(N2CCN(C(=O)[C@H]([C@@H](C)CC)n3cc([C@@H](N)CC(C)C)nn3)CC2)n1

>  <Qualitative Label>
no (0)

$$$$
>  <Compound>
CCCCCc1ccc(OCCCC[n+]2ccccc2)c(CCCCC)c1

>  <Qualitative Label>
no (0)

$$$$
>  <Compound>
CCN(CC)CCNC(=O)c1ccc(NC(=O)c2cn(-c3ccc(F)cc3)nc2-c2cccc(OC)c2)cc1

>  <Qualitative Label>
yes (1)

$$$$
>  <Compound>
O=C(NC(=S)Nc1ccc(N2CCN(C(=O)c3ccccc3)CC2)cc1)c1cccs1

>  <Qualitative Label>
no (0)

$$$$
